Target Of Assay: Fuc(a1-3)[Gal(b1-4)]GlcNAc(b1-3)GalNAc
Assay Name: glycan array binding signal (z-score within array); higher = stronger binding
Condition Context: glycan notation: IUPAC condensed, linker removed
This excerpt belongs to a sample that is enriched for the strongest signals.
Readout: glycan array binding signal (z-score)
Respond with the number and no other words.

BC2L-D C-terminal domain (Burkholderia cenocepacia), Q39MQ9_BURS3 (protein) LVIVDAVTLLSAYPEASRDPAAPTVIDGRHLYVVSPGDAAQLGHNDSRLFTGLSPGDQLHLRETALALRAEVSVLFIRFALKDAGIVAPIELEVRDAATAVPDADDLLHPSCRPLKDHYWRSDVLAAGATTCTADFAVCDRDGTVSGYFRWETSIEIAGSQPDTKQPGFKPSSDRNGNFSLPPNTAFKAIFYANAADRQDLKLFIDDAPEPAATFVGNSEDGVRLFTLNSKGGKIRIEASANGRQSATDARLAPLSAGDTVWLGWLGAEDGADADYNDGIVILQWPIT = -0.164

Consider the additional binder presented here.
**Q:** For cupB6 (Pseudomonas aeruginosa), Q02SP7 (protein) MSMRLFPGRVSLRRRPGAQARQALVLGLCCLTGGQAWALNEVALNCSFGNGKGLPWRVVNELTSGTAKGTVLFARPVSLFLSYKPQASQEAHELVLGGNWSGVGYPGPYGTVASDVKGIGYRISVDAQDGVKRVIPVDNQPHALDKRVTSFSGSTTSDYLQELVLTVDPGELPAGDLKVTSVSGSATLNLWAVDRLKGEASIGSVLAVPADNYPTGVCRKPYSLIGPASIAIGGGPPPPPIPKKCKVEVGREINVKLGSVALKNFPRVNDTSTERSFDISLSECAALAKPEIAFRDKYVSAQQADPTILSLKSGGAAGFGIVVKNGLDQQRIRFDGTPYPMRRVGDSADLPLSAAYIRIGAEGELKAGVADGAAEFTFTFP , what is its reported glycan array binding signal (z-score)?
**A:** 0.027
